SYSTEM_NAME: Mu-type opioid receptor (Homo sapiens)
ASSAY_SUMMARY: mu-delta opioid heterodimer formation enhancers – cell-based, luminescence, dose response, set 2, late-stage follow-up (AID 651762)
CONDITION_DETAILS: luminescence complementation
Calls of active or inactive are those of the source. How the calls were made is not given here.
// classify into active, inactive

> print(dat)
                                   compound  group.label
1  CCOC(=O)C1(CCOc2ccccc2)CCCN(Cc2ccc(NC(C)=O)cc2)C1 (stereo unspecified)     inactive
2  CCOC(=O)C1(Cc2ccc(OC)cc2)CCN(C(=O)c2ccc(N(C)C)cc2)CC1     inactive

Query :: Record request — test call for CCOC(=O)C1CCCCN1Cc1ccc(NC(C)=O)cc1 (stereo unspecified)
Result :: inactive
